Reference for the values: PubChem BioAssay AID248

Assign T/C to each entry below.
Test system: L1210 leukemia ip in BDF1 mice, survival T/C
protocol.notes: NCI In Vivo Anticancer Drug Screen. Data for tumor model L1210 Leukemia (intraperitoneal) in B6D2F1 (BDF1) mice
condition.description: endpoint: mean survival time; dose: 50.0 mg/kg/injection; schedule: Q01DX009 (ip); vehicle: saline with Tween-80; higher = longer survival
Toxic doses and inconclusive results are not listed.

As a guide, the following entries are already answered.
• COc1cc(C)ccc1Cl = 107 % of control
• C[n+]1cccc(C(=O)N/N=C/CCc2ccccc2)c1 = 120 % of control
• O=C(C[n+]1ccccc1)N/N=C/c1ccc(O)c(O)c1 = 104 % of control
• CC(=O)Oc1cc(C)c(OC(C)=O)c(C)c1C = 103 % of control
• CC(=O)c1ccc(C(=O)O)cc1 = 87 % of control

Dear colleague, could you please provide T/C for the compounds listed below?
1. BrC1(Br)C2CC/C=C\CCC21 (stereo unspecified)
2. CCNC1CCCCC1
3. CCN(CC)CC(=O)Nc1cccc2c1C(=O)c1c(c(O)c3ccccc3c1O)C2=O
4. COCNC(=S)N/N=C/c1ccccn1
5. CC(=O)N1c2ccccc2Sc2cc(C(O)(C(F)(F)F)C(F)(F)F)ccc21
6. COC(=O)/C(C#N)=N/O

102 % of control
104 % of control
94 % of control
124 % of control
95 % of control
102 % of control

====

Test system: L1210 leukemia ip in BDF1 mice, survival T/C
protocol.notes: NCI In Vivo Anticancer Drug Screen. Data for tumor model L1210 Leukemia (intraperitoneal) in B6D2F1 (BDF1) mice
condition.description: endpoint: mean survival time; dose: 200.0 mg/kg/injection; schedule: Q04DX003 (ip); vehicle: saline; higher = longer survival
Toxic doses and inconclusive results are not listed.
For each record, write down the corresponding T/C.

Solved cases below.
• Cc1cc(=O)[nH]c(NCCCCC(N)C(=O)O)n1 (centres undefined) = 101 % of control
• N#CCCC(CC#N)S(=O)(=O)O (centres undefined) = 108 % of control
• N#CC1(OC2OC(CO)C(O)C(O)C2O)C=CC(O)C1O (centres undefined) = 105 % of control
• CCCn1c(C)nc2c1C(=O)c1ccccc1C2=O = 88 % of control
• O=[N+]([O-])C12CCCCC1([N+](=O)[O-])CCCC2 (centres undefined) = 92 % of control

Give measured T/C for every item shown.
1. COC(=O)c1cn[nH]c1/N=N/N(C)CCO
2. O=c1[nH][nH]c(-c2ccccc2)c1Cc1ccccc1
3. CN(C)CCOc1ncnc2nc[nH]c12
4. CCCC1(CCC)CN(C)C1=O
5. CC(O)CN1CCOCC1 (centres undefined)
6. Cc1ccc([N+](=O)[O-])cc1NC(=O)NCCO
7. COC(=O)C(CCSC)NC(=O)C1CSC(C)(C)N1C=O (centres undefined)

1: 119 % of control; 2: 96 % of control; 3: 102 % of control; 4: 98 % of control; 5: 97 % of control; 6: 106 % of control; 7: 97 % of control

For each of the compounds below, state T/C.
1. CC(=O)NC1(CO)CCCCC1
2. NC(=O)NOCC(N)C(=O)O (centres undefined)

1: 95 % of control; 2: 102 % of control
